# ASSAY PROCEDURE: CCTE_Shafer_MEA_acute_burst_duration_mean: CCTE's Neural Acute Assay for Mean Burst Duration, Shafer Lab (AID 2284014);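 further: hits are decreases in mean burst duration relative to DMSO controls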
# Experimental: CCTE_Shafer_MEA_acute assay is conducted using Axion Biosystems 48 well microelectrode array (MEA) plates and Maestro recording system. Each well of the MEA plate contains a grid of 16 microelectrodes embedded in the culture surface. Electrically active cells, such as neurons, can be cultured over the electrodes, and electrical activity in these cells can be recorded extracellularly. […]
The source made the active and inactive calls. How the source made its calls: active means hit-call score of the fitted dose curve at least 0.9, where 1 is the maximum; inactive means score below 0.9.
API: response.call in active, inactive

In: Returns: the outcome recorded for CCC(C)(C)c1ccc(O)cc1 in this assay.
Out: inactive

In: Similarly, ClC1=C(Cl)C2(Cl)C3C(Cl)C(Cl)CC3C1(Cl)C2(Cl)Cl (stereo not given) ?
Out: inactive

In: Similarly, O=C(O)C1C(C(=O)O)C2(Cl)C(Cl)=C(Cl)C1(Cl)C2(Cl)Cl (stereo not given) ?
Out: inactive

In: Similarly, Cc1ccc(N)cc1N ?
Out: inactive

In: Similarly, CCOP(=S)(Oc1ccc([N+](=O)[O-])cc1)c1ccccc1 (stereo not given) ?
Out: inactive

In: Similarly, COCCOCCO ?
Out: inactive

In: Similarly, c1ccc2c(c1)Nc1ccccc1S2 ?
Out: active

In: Similarly, Nc1ccc2ccccc2c1 ?
Out: inactive

In: Similarly, CC(C)(C)c1ccccc1OP(=O)(Oc1ccccc1)Oc1ccccc1 ?
Out: inactive

Now consider the entry below.
In: Returns: the outcome recorded for CCC1(c2ccccc2)C(=O)N=C(O)NC1=O (stereo not given) in this assay.
Out: inactive
